protocol_notes: Determination of compound solubility in PBS buffer (LC-MS/MS)
Type: physicochemical
experimental_setup: PBS buffer, aqueous buffer, kinetic from dmso stock; PBS pH = 4.0, 25° C., stirred 2 hours; read-out: Solubility
quantity_kind: solubility at 2 h (µM)

compound	result_number
COc1cc(C2Oc3cc(C4Oc5cc(O)cc(O)c5CC4O)cc(O)c3OC2CO)ccc1O (stereo not shown)	209

----------
protocol_notes: in vivo
experimental_setup: both sexes, ICR, mouse, po

compound	MTD at 14 days / mg/kg
COc1cc(C2Oc3cc(C4Oc5cc(O)cc(O)c5CC4O)cc(O)c3OC2CO)ccc1O (stereo not shown) [Compound 7]	3000

----------
System: zebrafish non-alcoholic fatty liver
protocol_notes: Fat reduction or elimination effect on thioacetamide-induced zebrafish non-alcoholic fatty liver (Oil Red O staining)
Assay type: in vivo
experimental_setup: Danio rerio, 100 μM; read-out: Inhibition rate of liver steatosis

compound	inhibition at 100 µM
COc1cc([C@H]2Oc3cc([C@H]4Oc5cc(O)cc(O)c5C(O)[C@@H]4O)ccc3O[C@@H]2CO)ccc1O (stereo partly drawn)	84%
COc1cc(OC)c2c(c1)OC(c1cc(O)c3c(c1)OC(c1ccc(O)c(OC)c1)C(CO)O3)C(O)C2O (stereo not drawn)	98%
COc1cc(C2Oc3cc(C4Oc5cc(O)cc(OC)c5CC4O)cc(O)c3OC2CO)ccc1O (stereo not drawn)	> 100%
COc1cc(C2Oc3cc(C4Oc5cc(O)cc(O)c5CC4O)cc(O)c3OC2CO)ccc1O (stereo not drawn)	98%
COc1cc(C2Oc3cc(C4Oc5cc(F)cc(O)c5C(O)C4O)cc(O)c3OC2CO)ccc1O (stereo not drawn)	93%
COc1cc(OC)c2c(c1)OC(c1cc(O)c3c(c1)OC(c1ccc(O)c(OC)c1)C(CO)O3)C(O)C2 (stereo not drawn)	62%
COc1cc([C@H]2Oc3cc([C@H]4Oc5cc(O)cc(O)c5C[C@@H]4O)ccc3O[C@@H]2CO)ccc1O	58%
COc1cc(C2Oc3cc(C4Oc5cc(O)cc(O)c5C(O)C4O)cc(O)c3OC2CO)ccc1O (stereo not drawn)	83%
COc1cc(O)c2c(c1)OC(c1cc(O)c3c(c1)OC(c1ccc(O)c(OC)c1)C(CO)O3)C(O)C2 (stereo not drawn)	> 100%

----------
In this section, each of the compounds is paired with its reported solubility at 2 h.
protocol_notes: Determination of compound solubility in PBS buffer (LC-MS/MS)
Assay type: physicochemical
experimental_setup: 25 °C, pH 4, aqueous buffer, kinetic from dmso stock
Protocol: The test compounds were 7, 67 and 85, respectively; the control compound was silymarin, purchased from Shanghai Dibai Biotechnology Co., Ltd., with the batch number HH06. […] The solubility sample plate was placed in the autosampler and the LC-MS/MS method was used for analysis. The concentration of the test compound was calculated by the response value of the test compound and standard, and the concentration of the standard.

compound	solubility at 2 h / µM
COc1cc(O)c2c(c1)OC(c1cc(O)c3c(c1)OC(c1ccc(O)c(OC)c1)C(CO)O3)C(O)C2 (centres unmarked) [Compound 67]	148
COc1cc(C2Oc3cc(C4Oc5cc(O)cc(OC)c5CC4O)cc(O)c3OC2CO)ccc1O (centres unmarked) [Compound 85]	160

----------
protocol_notes: Determination of compound solubility in PBS buffer (LC-MS/MS)
Format: physicochemical
experimental_setup: PBS buffer, aqueous buffer, kinetic from dmso stock; PBS pH = 7.4, 25° C., stirred 2 hours; read-out: Solubility
quantity_kind: solubility at 2 h

molecule	result
COc1cc(C2Oc3cc(C4Oc5cc(O)cc(O)c5CC4O)cc(O)c3OC2CO)ccc1O (stereo not shown)	214 µM
